Values were extracted from patent US4073902A.

- Test system: Pasteurella multocid 341
- assay.text: oral ED50, systemic infection in mice
- measurement.setup: Pasteurella, 341, in Mus musculus, read-out: oral ED50
// values below are reported ED50
Record the value in mg/kg, omitting the unit from your answer.

{"substance.smiles": "CC1=C(C(=O)O)N2C(=O)[C@@H](NC(=O)[C@H](N)C3=CCC=CC3)[C@H]2SC1", "ED50 (mg/kg)": 110}
{"substance.smiles": "COC1=C(C(=O)O)N2C(=O)[C@@H](NC(=O)[C@H](N)C3=CCC=CC3)[C@H]2SC1", "ED50 (mg/kg)": 17}

Switching to the query record.
Request: Using known records, supply ED50 for CC1=C(C(=O)O)N2C(=O)[C@@H](NC(=O)[C@H](N)c3ccccc3)[C@H]2SC1
Response: 66
